Tested system: cABLT315 kinase (Homo sapiens, UniProt P00519)
Method: cABLT315 kinase Caliper assay
Format: biochemical
Property measured: log10 of IC50 (log10 of the value in nM)

compound_smiles=CC[C@H]1O[C@@H](c2ccncc2NC(=O)c2nc(-c3ccccc3)ncc2N)C[C@@H](O)[C@@H]1O value_measured=3.90
compound_smiles=C[C@H]1O[C@@H](c2ccncc2NC(=O)c2nc(-c3ccccc3)cnc2N)[C@H](F)[C@@H](O)[C@]1(C)O value_measured=2.82
compound_smiles=Nc1ncc(-c2ccccc2)nc1C(=O)Nc1cnccc1[C@H]1C[C@@H](O)[C@@]2(O)CCC[C@H]2O1 value_measured=1.95
compound_smiles=C=C1[C@@H](O)C[C@@H](c2ccncc2NC(=O)c2nc(-c3ccccc3)cnc2N)OC12CC2 value_measured=1.85
compound_smiles=C[C@H]1O[C@@H](c2ccncc2NC(=O)c2nc(-c3ccccc3)cnc2N)C[C@@H](O)[C@]1(C)O value_measured=1.93
compound_smiles=C[C@@H]1O[C@H](c2ccncc2NC(=O)c2nc(-c3ccccc3)cnc2N)C[C@H](O)[C@@]1(C)O value_measured=2.85
compound_smiles=Nc1ncc(-c2ccccc2)nc1C(=O)Nc1cnccc1[C@H]1C[C@@H](O)[C@H](O)[C@@H](CCl)O1 value_measured=1.48
compound_smiles=Nc1ncc(-c2ccccc2)nc1C(=O)Nc1cnccc1[C@@H]1C[C@H](O)[C@]2(O)CCCC[C@@H]2O1 value_measured=3.87
compound_smiles=Nc1ncc(-c2ccccc2)nc1C(=O)Nc1cnccc1[C@@H]1C[C@H](O)[C@]2(O)CCC[C@@H]2O1 value_measured=4.00
